The entries below are paired with their reported IC50.
test system: ES-2 cell line; assay: 72 hr cell viability assay (Alamar Blue), dose response IC50; format: cell-based; conditions: Homo sapiens; 72 hr, ES-2 cell line, Alamar Blue fluorescence, mean ± s.e.m., n ≥ 3
readout: IC50

molecule	target-or-system	observed
CO[C@H]1C[C@@]23CC[C@@H](C)[C@@](C)([C@H](OC(=O)C(Cl)Cl)C[C@@H](C4=CCn5c(=O)n(-c6ccccc6)c(=O)n5C4)[C@@H]2C)[C@]3(O)C1=O [Compound P25]	ES-2 cell line	> 100 µM
CO[C@H]1C[C@@]23CC[C@@H](C)[C@@](C)([C@H](OC(=O)CCl)C[C@@H](C4=CCn5c(=O)n(-c6ccccc6)c(=O)n5C4)[C@@H]2C)[C@]3(O)C1=O [Compound P19]	ES-2 cell line	1.9 µM
C[C@@H]1CC[C@@]23C[C@H](O)C(=O)[C@@]2(O)[C@]1(C)[C@H](OC(=O)CI)C[C@@H](C1=CCn2c(=O)n(-c4ccccc4)c(=O)n2C1)[C@@H]3C [Compound P23]	ES-2 cell line	0.24 µM
C[C@@H]1CC[C@@]23C[C@H](O)C(=O)[C@@]2(O)[C@]1(C)[C@H](OC(=O)CF)C[C@@H](C1=CCn2c(=O)n(-c4ccccc4)c(=O)n2C1)[C@@H]3C [Compound P22]	ES-2 cell line	34 µM
C=CC(=C)[C@@H]1C[C@@H](OC(=O)CCl)[C@]2(C)[C@H](C)CC[C@]3(C[C@H](O)C(=O)[C@]32O)[C@H]1C [Compound P4]	ES-2 cell line	6.7 µM

----------
experiment: Pharmacokinetic assessment; format: in vivo, C57BL/6 mice; conditions: female, mouse, ip; 40 mg/kg i.p., C57BL/6 mice, serum
readout: AUC (ng·h/mL)

molecule	readout	observed
C[C@@H]1CC[C@@]23C[C@H](O)C(=O)[C@@]2(O)[C@]1(C)[C@H](OC(=O)CCl)C[C@@H](C1=CCn2c(=O)n(-c4ccccc4)c(=O)n2C1)[C@@H]3C [Compound P18, ferroptocide]	AUC	7040

----------
test system: ES-2 cell line; test: 72 hr cell viability assay (Alamar Blue), dose response IC50; assay type: cell-based; details: 72 hr cell viability assay, ES-2 cells, relative to ferroptocide

molecule	anticancer activity (in words)
CO[C@H]1C[C@@]23CC[C@@H](C)[C@@](C)([C@H](OC(=O)c4ccco4)C[C@@H](C4=CCn5c(=O)n(-c6ccccc6)c(=O)n5C4)[C@@H]2C)[C@]3(O)C1=O [Compound P26]	no anticancer activity
CC(=O)OCC(=O)O[C@@H]1C[C@@H](C2=CCn3c(=O)n(-c4ccccc4)c(=O)n3C2)[C@H](C)[C@@]23CC[C@@H](C)[C@]1(C)[C@]2(O)C(=O)[C@@H](O)C3 [Compound P24]	no anticancer activity
CO[C@H]1C[C@@]23CC[C@@H](C)[C@@](C)([C@H](OC(=O)C(Cl)Cl)C[C@@H](C4=CCn5c(=O)n(-c6ccccc6)c(=O)n5C4)[C@@H]2C)[C@]3(O)C1=O [Compound P25]	no anticancer activity

----------
tested on: ES-2 cell line; assay: 72 hr cell viability assay (Alamar Blue), dose response IC50; format: cell-based; details: Homo sapiens; 72 hr, ES-2 cell line, Alamar Blue fluorescence, mean ± s.e.m., n ≥ 3
pIC50: −log10 of the molar value.

molecule	target-or-system	relation-symbol	pIC50
CC(=O)OCC(=O)O[C@@H]1C[C@@H](C2=CCn3c(=O)n(-c4ccccc4)c(=O)n3C2)[C@H](C)[C@@]23CC[C@@H](C)[C@]1(C)[C@]2(O)C(=O)[C@@H](O)C3	ES-2 cell line	<	4.00
C[C@@H]1CC[C@@]23C[C@H](O)C(=O)[C@@]2(O)[C@]1(C)[C@H](OC(=O)CCl)C[C@@H](C1=CCn2c(=O)n(-c4ccccc4)c(=O)n2C1)[C@@H]3C [Compound P18, ferroptocide]	ES-2 cell line	=	5.80
CC(=O)O[C@H]1C[C@@]23CC[C@@H](C)[C@@](C)([C@H](OC(=O)CCl)C[C@@H](C4=CCn5c(=O)n(-c6ccccc6)c(=O)n5C4)[C@@H]2C)[C@]3(O)C1=O	ES-2 cell line	=	5.85
CO[C@H]1C[C@@]23CC[C@@H](C)[C@@](C)([C@H](OC(=O)c4ccco4)C[C@@H](C4=CCn5c(=O)n(-c6ccccc6)c(=O)n5C4)[C@@H]2C)[C@]3(O)C1=O	ES-2 cell line	<	4.00
CO[C@H]1C[C@@]23CC[C@@H](C)[C@@](C)([C@H](OC(C)=O)C[C@@H](C4=CCn5c(=O)n(-c6ccccc6)c(=O)n5C4)[C@@H]2C)[C@]3(O)C1=O	ES-2 cell line	<	4.00

----------
test: Pharmacokinetic assessment; format: in vivo, C57BL/6 mice; conditions: female, mouse, ip; 40 mg/kg i.p., C57BL/6 mice, serum
readout: half-life (min)

compound	readout	measurement-unit	observed
C[C@@H]1CC[C@@]23C[C@H](O)C(=O)[C@@]2(O)[C@]1(C)[C@H](OC(=O)CCl)C[C@@H](C1=CCn2c(=O)n(-c4ccccc4)c(=O)n2C1)[C@@H]3C [Compound P18, ferroptocide]	half-life	min	9.96
